system.under.test: T1, human VEGFA165 (human, UniProt P15692-4 27-191)
T1 construct: Bought protein from two suppliers, treated as one molecule; the supplier is named under assay; also called antigen VEGFA
protocol.notes: ELISA, coated human VEGFA165, anti-His detection
recorded.endpoint: pEC50
// field semantics: pEC50 = negative decimal log of concentration (mol/L)

binder	recorded.endpoint	endpoint.result
2V1-3A (VHH, Tandem bivalent nanobody) QLQLVESGGGSVQPGGSLRLSCEVSGRTFSSYTMGWFRQAPGKEREFVVAISKGGYKYDSVSLEARFTISKDNTKNTVYLQMNSLKPEDTAVYYCAATRAYGSSRLRLADTYEYWGQGTQVTVSSAAAQLQLVESGGGSVQPGGSLRLSCEVSGRTFSSYTMGWFRQAPGKEREFVVAISKGGYKYDSVSLEARFTISKDNTKNTVYLQMNSLKPEDTAVYYCAATRAYGSSRLRLADTYEYWGQGTQVTVSS	pEC50	9.60

Let's switch to this binder now.
q: Look up pEC50 for this binder: 2V1-NL (VHH, Tandem bivalent nanobody; also called bivalent V1 without a linker) QLQLVESGGGSVQPGGSLRLSCEVSGRTFSSYTMGWFRQAPGKEREFVVAISKGGYKYDSVSLEARFTISKDNTKNTVYLQMNSLKPEDTAVYYCAATRAYGSSRLRLADTYEYWGQGTQVTVSSQLQLVESGGGSVQPGGSLRLSCEVSGRTFSSYTMGWFRQAPGKEREFVVAISKGGYKYDSVSLEARFTISKDNTKNTVYLQMNSLKPEDTAVYYCAATRAYGSSRLRLADTYEYWGQGTQVTVSS
a: 9.54
